read-out: E-selectin (Homo sapiens) (UniProt P16581); experiment: BSK_LPS_Eselectin: BioMAP Diversity Plus: LPS Assay for Eselectin Biomarker Activity (AID 2283077); conditions: primary human HUVEC with PBMC; actives raise or lower the signal
Sequence (P16581 whole entry, looked up): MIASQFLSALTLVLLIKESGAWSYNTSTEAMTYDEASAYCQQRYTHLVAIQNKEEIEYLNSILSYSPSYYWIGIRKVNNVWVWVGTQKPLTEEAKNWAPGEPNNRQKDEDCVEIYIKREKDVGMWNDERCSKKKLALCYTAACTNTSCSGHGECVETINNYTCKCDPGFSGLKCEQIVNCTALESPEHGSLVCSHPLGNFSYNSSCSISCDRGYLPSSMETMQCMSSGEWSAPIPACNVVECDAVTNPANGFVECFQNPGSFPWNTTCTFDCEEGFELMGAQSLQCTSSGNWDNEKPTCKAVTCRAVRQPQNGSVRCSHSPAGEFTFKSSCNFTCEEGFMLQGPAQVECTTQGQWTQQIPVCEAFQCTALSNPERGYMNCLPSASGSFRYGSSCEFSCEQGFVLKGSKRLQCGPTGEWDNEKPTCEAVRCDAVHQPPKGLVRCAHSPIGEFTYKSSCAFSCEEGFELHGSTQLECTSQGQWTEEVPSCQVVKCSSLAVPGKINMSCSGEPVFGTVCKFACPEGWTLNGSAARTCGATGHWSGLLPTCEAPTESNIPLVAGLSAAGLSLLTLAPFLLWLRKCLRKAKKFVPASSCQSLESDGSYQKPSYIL
Calls of active or inactive are those of the source. How the source made its calls: active means hit-call score of the fitted dose curve at least 0.9, where 1 is the maximum; inactive means score below 0.9.
Output constraint: value belongs to Y = active, N = inactive

These recorded examples may help you get a feel for the data.
CC(C)Oc1ccccc1O: N
O=C(O)C[C@H](O)C[C@H](O)/C=C/c1c(C2CC2)nc2ccccc2c1-c1ccc(F)cc1: Y
CCc1c(C)cc(N)c(CC)c1N: N
CC(=O)O[C@]1(C(C)=O)CC[C@H]2[C@@H]3C[C@H](C)C4=CC(=O)CC[C@]4(C)[C@H]3CC[C@@]21C: N
CNC[C@H](O)c1cccc(O)c1: N

Shifting focus to the compound that follows.
Ask | In this assay, the call recorded for CC1COc2ccccc2N1C(=O)C(Cl)Cl (centres undefined) was what?
Reply | Y

* * *

assay: ATG_PPRE_CIS: Attagene CIS-FACTORIAL HepG2 Assay for human Peroxisome Proliferator-activated Response Element (PPRE) (AID 2282958); settings: HepG2 PPRE cis-element reporter, Attagene transcription factor profiling; actives raise or lower the signal
The source made the active and inactive calls. How the source made its calls: active means hit-call score of the fitted dose curve at least 0.9, where 1 is the maximum; inactive means score below 0.9.
Output constraint: value belongs to active, inactive

These recorded examples may help you get a feel for the data.
O=C(O)c1cccc([N+](=O)[O-])c1: inactive
CCCCN: inactive
Nc1cc(Cl)c(O)c(Cl)c1: active
CC1=CCC(O)(C(C)C)CC1 (stereo unspecified): inactive
CC1(C)C(=O)N(Br)C(=O)N1Cl: inactive

Ask | In this assay, the call recorded for CC1=CCC2C(C1)C2(C)C (stereo unspecified) was what?
Reply | inactive

Ask | In this assay, the call recorded for Cc1ccc(C=O)cc1 was what?
Reply | inactive

Ask | In this assay, the call recorded for COC(C(=O)O)c1ccccc1 (stereo unspecified) was what?
Reply | inactive

* * *

read-out: Interleukin 6 (IL6), IL6 (gene 3569); assay: BSK_BT_xIL6: BioMAP Diversity Plus: BT Assay for Interleukin 6 (IL6) Biomarker Activity (AID 2284228); settings: primary human B cells with PBMC
Calls of active or inactive are those of the source. Rule for the calls: active = hit-call score of the fitted dose curve at least 0.9, where 1 is the maximum; inactive = score below 0.9.
Output constraint: value belongs to t (active), f (inactive)

These recorded examples may help you get a feel for the data.
CN(CCOc1ccc(CC2SC(=O)NC2=O)cc1)c1ccccn1 (centres undefined): f
CCCCC(CC)COC(=O)/C=C\C(=O)OCC(CC)CCCC (centres undefined): t
CC(C)c1ccc(C(C)C)cc1: f
CCCCCCCCCC=O: f
CC(=O)O[C@]1(C(C)=O)CC[C@H]2[C@@H]3C[C@H](C)C4=CC(=O)CC[C@]4(C)[C@H]3CC[C@@]21C: f

Ask | In this assay, the call recorded for C=C[Si](OCC)(OCC)OCC was what?
Reply | f

Ask | In this assay, the call recorded for c1ccc2c(c1)c1cccc3ccc4cccc2c4c31 was what?
Reply | t

Ask | In this assay, the call recorded for C#C[C@]1(O)CC[C@H]2[C@@H]3CCC4=Cc5oncc5C[C@]4(C)[C@H]3CC[C@@]21C was what?
Reply | f

Ask | In this assay, the call recorded for CC1CCC(C(C)CS)CC1S (centres undefined) was what?
Reply | f

Ask | In this assay, the call recorded for N#Cc1ccc(CC(=NNC(=O)Nc2ccc(OC(F)(F)F)cc2)c2cccc(C(F)(F)F)c2)cc1 was what?
Reply | f

Ask | In this assay, the call recorded for O=C1OC2(c3cc(Br)c(O)c(Br)c3Oc3c2cc(Br)c(O)c3Br)c2c(Cl)c(Cl)c(Cl)c(Cl)c21 was what?
Reply | t

Ask | In this assay, the call recorded for CC(=O)/C=C/C1=C(C)CCCC1(C)C was what?
Reply | f

Ask | In this assay, the call recorded for CCCCCCCCCCCCCCCCCC(=O)OCC(CC)CCCC (centres undefined) was what?
Reply | f
